Tested on: barnyardgrass
methodNotes: Soil treatment test for upland field
Assay type: in vivo, Echinochloa crusgalli
Design: key: 0: normal development; 1: Less damaged; 2: Slightly damaged; 3: Moderately damaged; 4: Severely damaged; 5: All killed
testParameters: 500 g/ha, glass house 25° C., 3 weeks
Description: (0: normal development, 1: Less damaged, 2: Slightly damaged, 3: Moderately damaged, 4: Severely damaged, 5: All killed). […] The herbicidal effects were evaluated according to the evaluation method described in the above (1).
reportedEndpoint: Effects Barnyardgrass
Output: the number by itself.

CCC(Oc1ccc(F)c(C(F)(F)F)c1)c1nc2cc(Cl)c(C)cc2o1 (stereo not drawn) [Compound 340]
4
CCC(Oc1cccc(C#N)c1)c1nc2cc(F)c(Cl)cc2o1 (stereo not drawn) [Compound 498]
3
CC(Oc1ccc(F)c(C(F)(F)F)c1)c1nc2cc(Cl)ccc2o1 (stereo not drawn) [Compound 137]
3

query: Output Effects Barnyardgrass of CCC(Oc1ccc(F)c(C(F)(F)F)c1)c1nc2cc(Br)ccc2o1 (stereo not drawn) [Compound 165]
result: 5

query: Output Effects Barnyardgrass of CCCC(Oc1cccc(C(F)(F)F)c1)c1nc2cc(C#N)c(C#N)cc2o1 (stereo not drawn) [Compound 317]
result: 3

query: Output Effects Barnyardgrass of CCCC(Oc1ccc(F)c(C(F)(F)F)c1)c1nc2cc(F)c(Cl)cc2o1 (stereo not drawn) [Compound 494]
result: 4

query: Output Effects Barnyardgrass of CCCC(Oc1cccc(C(F)(F)F)c1)c1nc2cc(C#N)c(Cl)cc2o1 (stereo not drawn) [Compound 532]
result: 5

query: Output Effects Barnyardgrass of CCC(Oc1cccc(C(F)(F)F)c1)c1nc2cc([N+](=O)[O-])ccc2o1 (stereo not drawn) [Compound 178]
result: 4

query: Output Effects Barnyardgrass of CCC(Oc1ccc(F)c(C(F)(F)F)c1)c1nc2cc(I)ccc2o1 (stereo not drawn) [Compound 171]
result: 2

query: Output Effects Barnyardgrass of CCC(Oc1ccc(F)c(C(F)(F)F)c1)c1nc2cc([N+](=O)[O-])ccc2o1 (stereo not drawn) [Compound 177]
result: 3

query: Output Effects Barnyardgrass of CCC(Oc1ccc(Cl)c(C(F)(F)F)c1)c1nc2cc([N+](=O)[O-])ccc2o1 (stereo not drawn) [Compound 432]
result: 4

query: Output Effects Barnyardgrass of CCC(Oc1cccc(C(F)(F)F)c1)c1nc2cc(Cl)ccc2o1 (stereo not drawn) [Compound 140]
result: 4

query: Output Effects Barnyardgrass of CC(Oc1cccc(C(F)(F)F)c1)c1nc2ccc(C(F)(F)F)cc2o1 (stereo not drawn) [Compound 86]
result: 3

query: Output Effects Barnyardgrass of CCC(Oc1cccc(C(F)(F)F)c1)c1nc2cc(C(F)(F)F)ccc2o1 (stereo not drawn) [Compound 198]
result: 4

query: Output Effects Barnyardgrass of CCC(Oc1cccc(C#N)c1)c1nc2cc(C#N)ccc2o1 (stereo not drawn) [Compound 392]
result: 2

query: Output Effects Barnyardgrass of CCC(Oc1ccc(F)c(C(F)(F)F)c1)c1nc2cc(S(C)(=O)=O)c(C)cc2o1 (stereo not drawn) [Compound 487]
result: 2

query: Output Effects Barnyardgrass of CCC(Oc1cccc(OC(F)(F)F)c1)c1nc2cc(C#N)c(C#N)cc2o1 (stereo not drawn) [Compound 527]
result: 4

query: Output Effects Barnyardgrass of CCC(Oc1ccc(F)c(C(F)(F)F)c1)c1nc2cc(Cl)c([N+](=O)[O-])cc2o1 (stereo not drawn) [Compound 334]
result: 3

###

System: livid amaranth
methodNotes: Foliar spread test for upland field
Assay type: in vivo, Amaranthus lividus
Set-up: key: 0: normal development; 1: Less damaged; 2: Slightly damaged; 3: Moderately damaged; 4: Severely damaged; 5: All killed
testParameters: foliar spray 500 ppm, 3 weeks, rank vs non-treated
Effects Livid amaranth values, listed per item
Output: the number by itself.

CCC(Oc1cccc(C#N)c1)c1nc2cc(S(C)(=O)=O)c(C)cc2o1 (stereo not shown)
4
CCC(Oc1ccc(F)c(C(F)(F)F)c1)c1nc2cc(F)ccc2o1 (stereo not shown)
4
CC(Oc1cccc(C(F)(F)F)c1)c1nc2ccc(C(F)(F)F)cc2o1 (stereo not shown)
3
CCC(Oc1cccc(C(F)(F)F)c1)c1nc2cc(Br)ccc2o1 (stereo not shown)
4
CCCC(Oc1ccc(F)c(C(F)(F)F)c1)c1nc2cc(F)c(Cl)cc2o1 (stereo not shown)
5

query: Enter recorded Effects Livid amaranth with livid amaranth for CCCC(Oc1ccc(F)c(C(F)(F)F)c1)c1nc2cc(Cl)ccc2o1 (stereo not shown) here.
result: 4

query: Enter recorded Effects Livid amaranth with livid amaranth for CCCC(Oc1cccc(C(F)(F)F)c1)c1nc2cc(C#N)ccc2o1 (stereo not shown) here.
result: 4

query: Enter recorded Effects Livid amaranth with livid amaranth for CCC(Oc1cccc(OC(F)(F)F)c1)c1nc2cc([N+](=O)[O-])ccc2o1 (stereo not shown) here.
result: 4

query: Enter recorded Effects Livid amaranth with livid amaranth for CCC(Oc1cccc(C#N)c1)c1nc2cc(F)c(Cl)cc2o1 (stereo not shown) here.
result: 4

query: Enter recorded Effects Livid amaranth with livid amaranth for CCC(Oc1cccc(C(F)(F)F)c1)c1nc2cc(C#N)c(Cl)cc2o1 (stereo not shown) here.
result: 5

###

Tested on: solgum
methodNotes: Foliar spread test for upland field
Format: in vivo
Parameters: key: 0: normal development; 1: Less damaged; 2: Slightly damaged; 3: Moderately damaged; 4: Severely damaged; 5: All killed
testParameters: foliar spray 500 ppm, 3 weeks, rank vs non-treated
reportedEndpoint: Effects Solgum
Output: the number by itself.

CCC(Oc1cccc(C(F)(F)F)c1)c1nc2cc(F)c(Cl)cc2o1 (centres unmarked)
2
CC(Oc1cccc(C(F)(F)F)c1)c1nc2ccc(C(F)(F)F)cc2o1 (centres unmarked)
0
CCC(Oc1ccc(F)c(C(F)(F)F)c1)c1nc2cc(F)ccc2o1 (centres unmarked)
1
CCCC(Oc1ccc(F)c(C(F)(F)F)c1)c1nc2cc(S(C)(=O)=O)c(C)cc2o1 (centres unmarked)
1
CCC(Oc1ccc(F)c(C(F)(F)F)c1)c1nc2ccc(C(F)(F)F)cc2o1 (centres unmarked)
1

query: Enter recorded Effects Solgum with solgum for CCC(Oc1ccc(F)c(C(F)(F)F)c1)c1nc2cc(C(F)(F)F)ccc2o1 (centres unmarked) here.
result: 2

query: Enter recorded Effects Solgum with solgum for CCC(Oc1cccc(C(F)(F)F)c1)c1nc2cc(F)ccc2o1 (centres unmarked) here.
result: 2

query: Enter recorded Effects Solgum with solgum for CCC(Oc1cccc(C(F)(F)F)c1)c1nc2cc(C#N)ccc2o1 (centres unmarked) here.
result: 3

query: Enter recorded Effects Solgum with solgum for CCC(Oc1cccc(C(F)(F)F)c1)c1nc2cc(Cl)c(C)cc2o1 (centres unmarked) here.
result: 1

query: Enter recorded Effects Solgum with solgum for CCCC(Oc1cccc(C(F)(F)F)c1)c1nc2cc(C#N)ccc2o1 (centres unmarked) here.
result: 2

query: Enter recorded Effects Solgum with solgum for CCC(Oc1ccc(Cl)c(C(F)(F)F)c1)c1nc2cc(Cl)ccc2o1 (centres unmarked) here.
result: 2

###

Effects Barnyardgrass values, listed per item
Tested on: barnyardgrass
methodNotes: Soil treatment test for upland field
Type: in vivo, Echinochloa crusgalli
Parameters: key: 0: normal development; 1: Less damaged; 2: Slightly damaged; 3: Moderately damaged; 4: Severely damaged; 5: All killed
testParameters: 500 g/ha, glass house 25° C., 3 weeks
Output: the number by itself.

These solved cases illustrate the format of a correct answer.
CCC(Oc1ccc(F)c(C(F)(F)F)c1)c1nc2cc(C#N)c(Cl)cc2o1 (centres unmarked)
3
CCCC(Oc1cccc(C(F)(F)F)c1)c1nc2cc(C#N)ccc2o1 (centres unmarked)
3
CCC(Oc1cccc(C(F)(F)F)c1)c1nc2cc(F)c(Cl)cc2o1 (centres unmarked)
3
CCCC(Oc1ccc(F)c(C(F)(F)F)c1)c1nc2cc(C(F)(F)F)ccc2o1 (centres unmarked)
2
CCC(Oc1cccc(C(F)(F)F)c1)c1nc2cc(F)c(C(F)(F)F)cc2o1 (centres unmarked)
5

query: Enter recorded Effects Barnyardgrass with barnyardgrass for CCCC(Oc1ccc(F)c(C(F)(F)F)c1)c1nc2ccc(C(F)(F)F)cc2o1 (centres unmarked) here.
result: 3

query: Enter recorded Effects Barnyardgrass with barnyardgrass for CCC(Oc1ccc(F)c(C(F)(F)F)c1)c1nc2cc(C(F)(F)F)ccc2o1 (centres unmarked) here.
result: 5

query: Enter recorded Effects Barnyardgrass with barnyardgrass for CCCC(Oc1cccc(C(F)(F)F)c1)c1nc2cc(F)c(C(F)(F)F)cc2o1 (centres unmarked) here.
result: 5

###

System: livid amaranth
methodNotes: Foliar spread test for upland field
Type: in vivo, Amaranthus lividus
Design: key: 0: normal development; 1: Less damaged; 2: Slightly damaged; 3: Moderately damaged; 4: Severely damaged; 5: All killed
testParameters: foliar spray 500 ppm, 3 weeks, rank vs non-treated
Effects Livid amaranth values, listed per item

query: Output Effects Livid amaranth of CCC(Oc1cccc(C(F)(F)F)c1)c1nc2cc(Cl)ccc2o1 (stereo not drawn)
result: 4

query: Output Effects Livid amaranth of CCC(Oc1cccc(S(C)(=O)=O)c1)c1nc2cc(S(C)(=O)=O)ccc2o1 (stereo not drawn)
result: 5

query: Output Effects Livid amaranth of CCC(Oc1ccc(F)c(C(F)(F)F)c1)c1nc2cc(I)ccc2o1 (stereo not drawn)
result: 5

query: Output Effects Livid amaranth of CCCC(Oc1cccc(C(F)(F)F)c1)c1nc2cc(F)c(Cl)cc2o1 (stereo not drawn)
result: 5

query: Output Effects Livid amaranth of CCCC(Oc1ccc(F)c(C(F)(F)F)c1)c1nc2ccc(C(F)(F)F)cc2o1 (stereo not drawn)
result: 4

query: Output Effects Livid amaranth of CCC(Oc1ccc(F)c(C(F)(F)F)c1)c1nc2cc(NC(=O)C(F)(F)F)ccc2o1 (stereo not drawn)
result: 2

query: Output Effects Livid amaranth of CCCC(Oc1cccc(C(F)(F)F)c1)c1nc2cc(Cl)ccc2o1 (stereo not drawn)
result: 4

query: Output Effects Livid amaranth of CCCC(Oc1cccc(C(F)(F)F)c1)c1nc2cc(S(C)(=O)=O)c(C)cc2o1 (stereo not drawn)
result: 5

query: Output Effects Livid amaranth of CCCCC(Oc1ccc(F)c(C(F)(F)F)c1)c1nc2cc(Cl)ccc2o1 (stereo not drawn)
result: 5

query: Output Effects Livid amaranth of CCCC(Oc1cccc(C(F)(F)F)c1)c1nc2cc(F)c(C(F)(F)F)cc2o1 (stereo not drawn)
result: 5

query: Output Effects Livid amaranth of CCCC(Oc1ccc(F)c(C(F)(F)F)c1)c1nc2cc(S(C)(=O)=O)c(C)cc2o1 (stereo not drawn)
result: 5

query: Output Effects Livid amaranth of CCC(Oc1cccc(C(F)(F)F)c1)c1nc2cc(C#N)ccc2o1 (stereo not drawn)
result: 5

query: Output Effects Livid amaranth of CCCC(Oc1cccc(C#N)c1)c1nc2cc(Cl)ccc2o1 (stereo not drawn)
result: 4

query: Output Effects Livid amaranth of CC(Oc1ccc(F)c(C(F)(F)F)c1)c1nc2cc(Cl)ccc2o1 (stereo not drawn)
result: 4

query: Output Effects Livid amaranth of CCC(Oc1cccc(C(F)(F)F)c1)c1nc2cc(S(C)(=O)=O)c(C)cc2o1 (stereo not drawn)
result: 4

query: Output Effects Livid amaranth of CCC(Oc1ccc(F)c(C(F)(F)F)c1)c1nc2cc(C(F)(F)F)ccc2o1 (stereo not drawn)
result: 4

query: Output Effects Livid amaranth of CCC(Oc1cccc(C(F)(F)F)c1)c1nc2cc(C#N)c(C#N)cc2o1 (stereo not drawn)
result: 5

query: Output Effects Livid amaranth of CCC(Oc1ccc(F)c(C(F)(F)F)c1)c1nc2cc(Cl)ccc2o1 (stereo not drawn)
result: 5
